# Test system: Liver microsome
# methodDescription: Drug level in human liver microsomes treated with lapatinib at 50 uM by LC/MS/MS analysis
# Type: ADME
recordedMetric: Drug metabolism

[[record]]
compound = "CS(=O)(=O)CCNC(O)c1ccc(-c2ccc3ncnc(Nc4ccc(O)c(Cl)c4)c3c2)o1 (stereo not drawn)"
obsvalue = "metabolite_detected"

[[record]]
compound = "NCc1ccc(-c2ccc3ncnc(Nc4ccc(OCc5cccc(F)c5)c(Cl)c4)c3c2)o1"
obsvalue = "metabolite_detected"

[[record]]
compound = "CS(=O)(=O)CC/[N+]([O-])=C/c1ccc(-c2ccc3ncnc(Nc4ccc(OCc5cccc(F)c5)c(Cl)c4)c3c2)o1"
obsvalue = "metabolite_detected"

[[record]]
compound = "CS(=O)(=O)CCN(O)Cc1ccc(-c2ccc3ncnc(Nc4ccc(OCc5cccc(F)c5)c(Cl)c4)c3c2)o1"
obsvalue = "metabolite_detected"

[[record]]
compound = "CS(=O)(=O)CCNCc1ccc(-c2ccc3ncnc(Nc4ccc(O)c(Cl)c4)c3c2)o1"
obsvalue = "metabolite_detected"

[[record]]
compound = "OCc1ccc(-c2ccc3ncnc(Nc4ccc(OCc5cccc(F)c5)c(Cl)c4)c3c2)o1"
obsvalue = "metabolite_detected"

[[record]]
compound = "O/N=C/c1ccc(-c2ccc3ncnc(Nc4ccc(OCc5cccc(F)c5)c(Cl)c4)c3c2)o1"
obsvalue = "metabolite_detected"

[[record]]
compound = "O=Cc1ccc(-c2ccc3ncnc(Nc4ccc(OCc5cccc(F)c5)c(Cl)c4)c3c2)o1"
obsvalue = "metabolite_detected"


====

# tgt: CYP3A4 (Homo sapiens)
# methodDescription: Inhibition of CYP3A4-mediated midazolam 1-hydroxylation in human liver microsomes at 50 uM
# Assay type: ADME
# conditionParameters: probe midazolam (1-hydroxylation)
recordedMetric: inhibition at 50 µM (%)

[[record]]
mol = "CS(=O)(=O)CCNCc1ccc(-c2ccc3ncnc(Nc4ccc(OCc5cccc(F)c5)c(Cl)c4)c3c2)o1"
unitofmeasure = "%"
obsvalue = 45


====

# tgt: CYP3A4 (Homo sapiens, UniProt P08684)
# Sequence (P08684 whole entry): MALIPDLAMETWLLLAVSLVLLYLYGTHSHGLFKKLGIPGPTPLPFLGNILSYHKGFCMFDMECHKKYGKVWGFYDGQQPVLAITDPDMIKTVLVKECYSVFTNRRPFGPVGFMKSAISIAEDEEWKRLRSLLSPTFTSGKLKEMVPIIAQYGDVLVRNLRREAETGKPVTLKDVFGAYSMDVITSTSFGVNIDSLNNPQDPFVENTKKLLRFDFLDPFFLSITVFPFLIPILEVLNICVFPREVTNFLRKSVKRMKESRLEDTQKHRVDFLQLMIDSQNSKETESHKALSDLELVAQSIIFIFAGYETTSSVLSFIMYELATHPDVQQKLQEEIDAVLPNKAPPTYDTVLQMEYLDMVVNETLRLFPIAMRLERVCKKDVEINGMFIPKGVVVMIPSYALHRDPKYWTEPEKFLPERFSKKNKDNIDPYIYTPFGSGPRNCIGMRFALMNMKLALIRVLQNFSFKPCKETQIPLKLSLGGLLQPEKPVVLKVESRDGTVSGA
# methodDescription: Inhibition of recombinant CYP3A4 (unknown origin)-mediated midazolam 1-hydroxylation at 50 uM
# Type: ADME
# conditionParameters: recombinant CYP3A4, probe midazolam (1-hydroxylation)
recordedMetric: inhibition at 50 µM (%)

[[record]]
mol = "CS(=O)(=O)CCNCc1ccc(-c2ccc3ncnc(Nc4ccc(OCc5cccc(F)c5)c(Cl)c4)c3c2)o1"
recordedmetric = "inhibition at 50 µM"
obsvalue = 45


====

# methodDescription: Retention time of the compound by LC/MS/MS analysis relative to lapatinib
# Assay type: physicochemical
recordedMetric: Ratio

[[record]]
compound = "CS(=O)(=O)CCNC(O)c1ccc(-c2ccc3ncnc(Nc4ccc(O)c(Cl)c4)c3c2)o1 (stereo not drawn)"
recordedmetric = "Ratio"
obsvalue = 0.78

[[record]]
compound = "CS(=O)(=O)CCNCc1ccc(-c2ccc3ncnc(Nc4ccc(O)c(Cl)c4)c3c2)o1"
recordedmetric = "Ratio"
obsvalue = 0.5

[[record]]
compound = "NCc1ccc(-c2ccc3ncnc(Nc4ccc(OCc5cccc(F)c5)c(Cl)c4)c3c2)o1"
recordedmetric = "Ratio"
obsvalue = 0.97

[[record]]
compound = "O=Cc1ccc(-c2ccc3ncnc(Nc4ccc(OCc5cccc(F)c5)c(Cl)c4)c3c2)o1"
recordedmetric = "Ratio"
obsvalue = 1.21

[[record]]
compound = "O/N=C/c1ccc(-c2ccc3ncnc(Nc4ccc(OCc5cccc(F)c5)c(Cl)c4)c3c2)o1"
recordedmetric = "Ratio"
obsvalue = 1.18

[[record]]
compound = "CS(=O)(=O)CCN(O)Cc1ccc(-c2ccc3ncnc(Nc4ccc(OCc5cccc(F)c5)c(Cl)c4)c3c2)o1"
recordedmetric = "Ratio"
obsvalue = 1.14

[[record]]
compound = "CS(=O)(=O)CC/[N+]([O-])=C/c1ccc(-c2ccc3ncnc(Nc4ccc(OCc5cccc(F)c5)c(Cl)c4)c3c2)o1"
recordedmetric = "Ratio"
obsvalue = 1.11

[[record]]
compound = "OCc1ccc(-c2ccc3ncnc(Nc4ccc(OCc5cccc(F)c5)c(Cl)c4)c3c2)o1"
recordedmetric = "Ratio"
obsvalue = 1.13

